# Tested on: CAF#4 (primary prostate cancer-associated fibroblasts of iCAF-like type)
# measurement.description: drug sensitivity score (DSS2, normalised partial AUC of dose-response, 72 h CellTiter-Glo viability) (DSS (dimensionless)); higher = more sensitive (stronger growth inhibition / cytotoxicity); extreme values may be limits of the assay
Record satisfied whenever drug sensitivity score is at 2 or higher; record not satisfied when lower.

Study these solved cases before continuing.
compound="CNC(=O)c1ccc(N2C(=S)N(c3cnc(C#N)c(C(F)(F)F)c3)C(=O)C23CCC3)cc1F [Apalutamide] (tested concentration range 1-10000 nM)" study_system=CAF#4 class_name="not satisfied"
compound="Nc1ccn([C@@H]2O[C@H](CO)[C@@H](O)[C@@H]2O)c(=O)n1 [Cytarabine] (tested concentration range 1-10000 nM)" study_system=CAF#4 class_name=satisfied
compound="C=CC[C@@H]1/C=C(\\C)C[C@H](C)C[C@H](OC)[C@H]2O[C@@](O)(C(=O)C(=O)N3CCCC[C@H]3C(=O)O[C@H](/C(C)=C/[C@@H]3CC[C@@H](O)[C@H](OC)C3)[C@H](C)[C@@H](O)CC1=O)[C@H](C)C[C@@H]2OC [Tacrolimus] (tested concentration range 1-10000 nM)" study_system=CAF#4 class_name="not satisfied"

Problem: Kindly determine if drug sensitivity score recorded for Nc1ncn([C@@H]2O[C@H](CO)[C@@H](O)[C@H]2O)c(=O)n1 [Azacitidine] (tested concentration range 1-10000 nM) is above or exactly 2.
Solution: satisfied

Problem: Could you tell me if the measured drug sensitivity score of C=C1C[C@@H]2[C@H](CC[C@]3(C)C(=O)CC[C@@H]23)[C@@]2(C)C=CC(=O)C=C12 [Exemestane] (tested concentration range 1-10000 nM) reaches 2 or more?
Solution: not satisfied

Problem: # bool: drug sensitivity score of CCc1nc(C(N)=O)c(Nc2ccc(N3CCC(N4CCN(C)CC4)CC3)c(OC)c2)nc1NC1CCOCC1 [Gilteritinib] (tested concentration range 0.1-1000 nM) >= 2
Solution: not satisfied

Problem: Is drug sensitivity score at least 2? Consider CN(C)C[C@@H]1CCn2cc(c3ccccc32)C2=C(C(=O)NC2=O)c2cn(c3ccccc23)CCO1 [Ruboxistaurin] (tested concentration range 1-10000 nM)
Solution: satisfied

Problem: Decide: drug sensitivity score of COc1cc(NS(C)(=O)=O)ccc1Nc1c2ccccc2nc2ccccc12 [Amsacrine] (tested concentration range 1-10000 nM) >= 2?
Solution: satisfied

Problem: Exam item: decide whether the reported drug sensitivity score for CC(C)N(CCCNC(=O)Nc1ccc(C(C)(C)C)cc1)C[C@H]1O[C@@H](n2cc(Br)c3c(N)ncnc32)[C@H](O)[C@@H]1O [SGC0946] (tested concentration range 1-10000 nM) is at least 2.
Solution: not satisfied

Problem: Does CNC(=O)c1cccc(-c2ccc3c(N4CCOC[C@@H]4C)nc(N4CCOC[C@@H]4C)nc3n2)c1 [Vistusertib] (tested concentration range 1-10000 nM) have a reported drug sensitivity score of at least 2?
Solution: satisfied

----------
# Tested on: CAF#2 (primary prostate cancer-associated fibroblasts of iCAF-like type)
# measurement.description: drug sensitivity score (DSS2, normalised partial AUC of dose-response, 72 h CellTiter-Glo viability) (DSS (dimensionless)); higher = more sensitive (stronger growth inhibition / cytotoxicity); extreme values may be limits of the assay
observable: drug sensitivity score
Give a plain numeric answer without units written out.

// below: answered compounds
compound="Nc1nc(Nc2ccc3c(c2)CC[C@@H](N2CCCC2)CC3)nn1-c1cc2c(nn1)-c1ccccc1CCC2 [Bemcentinib] (tested concentration range 1-10000 nM)" observable="drug sensitivity score" observed=3.2
compound="CCC1(c2ccc(N)cc2)CCC(=O)NC1=O (stereo not given) [Aminoglutethimide] (tested concentration range 1-10000 nM)" observable="drug sensitivity score" observed=0
compound="CNCc1ccc(-c2[nH]c3cc(F)cc4c3c2CCNC4=O)cc1 [Rucaparib] (tested concentration range 1-10000 nM)" observable="drug sensitivity score" observed=2.3
compound="CN(C)Cc1c(C(=O)NCCOc2ccc(C(=O)NO)cc2)oc2ccccc12 [Abexinostat] (tested concentration range 1-10000 nM)" observable="drug sensitivity score" observed=12.2

Problem: Which measured drug sensitivity score belongs to C=C1C[C@@H]2CC[C@@]34C[C@H]5O[C@H]6[C@@H](O3)[C@H]3O[C@H](CC[C@@H]3O[C@H]6[C@H]5O4)CC(=O)C[C@@H]3[C@@H](OC)[C@@H](C[C@H](O)CN)O[C@H]3C[C@H]3O[C@@H](CC[C@@H]1O2)C[C@@H](C)C3=C [Eribulin] (tested concentration range 0.1-1000 nM) , tested on CAF#2?
Solution: 18.3

----------
Measured drug sensitivity score accompanies every entry in the list below.
# Test system: CAF#2
# measurement.description: drug sensitivity score (DSS2, normalised partial AUC of dose-response, 72 h CellTiter-Glo viability) (DSS (dimensionless)); higher = more sensitive (stronger growth inhibition / cytotoxicity); extreme values may be limits of the assay
Please respond with just the number, no unit label.

molecule="CCn1c(=O)c(-c2ccc(Cl)cc2Cl)cc2cnc(Nc3ccc(N4CCNCC4)c(F)c3)nc21 [FRAX486] (tested concentration range 0.5-5000 nM)" observed=14.7
molecule="Cc1cccc(-c2[nH]c(CNc3ccccc3F)nc2-c2ccc3ncnn3c2)n1 [TEW-7197] (tested concentration range 0.2-2500 nM)" observed=0
molecule="CCS(=O)(=O)N1CCN(c2ccc(Nc3ncc(C(N)=O)c(NC4CC4)n3)cc2)CC1 [Cerdulatinib] (tested concentration range 1-10000 nM)" observed=3.7
molecule="CO[C@H]1CC[C@H](N2C(=O)CNc3ncc(-c4ccc(C(C)(C)O)nc4)nc32)CC1 [ATG-008] (tested concentration range 1-10000 nM)" observed=7

// switching to the query molecule
Problem: What value of drug sensitivity score on CAF#2 does CO[C@@H]1[C@H](N(C)C(=O)c2ccccc2)C[C@H]2O[C@]1(C)n1c3ccccc3c3c4c(c5c6ccccc6n2c5c31)C(=O)NC4 [Midostaurin] (tested concentration range 1-10000 nM) have?
Solution: 20.7

----------
# Test system: CAF#2
# measurement.description: drug sensitivity score (DSS2, normalised partial AUC of dose-response, 72 h CellTiter-Glo viability) (DSS (dimensionless)); higher = more sensitive (stronger growth inhibition / cytotoxicity); extreme values may be limits of the assay
Overview of recorded drug sensitivity score for various compounds

compound="CNC(=O)c1cccc(-c2ccc3c(N4CCOC[C@@H]4C)nc(N4CCOC[C@@H]4C)nc3n2)c1 [Vistusertib] (tested concentration range 1-10000 nM)" study_system=CAF#2 observed=15.8

Here's the next entry for you.
Problem: API: value(readout= drug sensitivity score, system= CAF#2, query= CC(C)n1nc(-c2ccc3oc(N)nc3c2)c2c(N)ncnc21 [Sapanisertib] (tested concentration range 0.1-1000 nM) )
Solution: 14

----------
# Tested on: CAF#7 (primary prostate cancer-associated fibroblasts of myCAF-like type)
# measurement.description: drug sensitivity score (DSS2, normalised partial AUC of dose-response, 72 h CellTiter-Glo viability) (DSS (dimensionless)); higher = more sensitive (stronger growth inhibition / cytotoxicity); extreme values may be limits of the assay
We use 3 as the dividing line for drug sensitivity score: on or above the line is T, below is F.

Use the examples below as a reference point.
molecule="COc1cccc2c1C(=O)c1c(O)c3c(c(O)c1C2=O)C[C@@](O)(C(C)=O)C[C@@H]3O[C@H]1C[C@H](N)[C@H](O)[C@H](C)O1 [Daunorubicin] (tested concentration range 0.1-1000 nM)" class_name=T
molecule="Nc1ccn([C@@H]2O[C@H](CO)[C@@H](O)C2(F)F)c(=O)n1 [Gemcitabine] (tested concentration range 0.1-1000 nM)" class_name=T
molecule="CNC(=O)c1cccc(-c2ccc3c(N4CCOC[C@@H]4C)nc(N4CCOC[C@@H]4C)nc3n2)c1 [Vistusertib] (tested concentration range 1-10000 nM)" class_name=T
molecule="CCn1c(-c2nonc2N)nc2c(C#CC(C)(C)O)ncc(OC[C@H]3CCCNC3)c21 (tested concentration range 1-10000 nM)" class_name=F
molecule="Nc1cc(F)ccc1NC(=O)/C=C/c1cnn(C/C=C/c2ccccc2)c1 [RGFP966] (tested concentration range 1-10000 nM)" class_name=F

Problem: State whether the measured drug sensitivity score reaches 3, counting equality as reaching it, for CN1CC[C@@H](NC(=O)Nc2ccc(C#N)cc2)C[C@@H]1c1nc2ccccc2[nH]1 [Glasdegib] (tested concentration range 0.1-1000 nM)
Solution: F

----------
# Test system: CAF#5 (primary prostate cancer-associated fibroblasts of myCAF-like type)
# measurement.description: drug sensitivity score (DSS2, normalised partial AUC of dose-response, 72 h CellTiter-Glo viability) (DSS (dimensionless)); higher = more sensitive (stronger growth inhibition / cytotoxicity); extreme values may be limits of the assay
observable: drug sensitivity score
Number, no unit, nothing else.

Some solved entries appear below for comparison.
compound="O=C(O)CCCCC(CCSCc1ccccc1)SCc1ccccc1 (stereo unspecified) [Devimistat] (tested concentration range 1-10000 nM)" study_system=CAF#5 observed=0
compound="Cc1ccccc1CN1C(=O)C2=C(CCN(Cc3ccccc3)C2)N2CCN=C12 [ONC201] (tested concentration range 2.5-25000 nM)" study_system=CAF#5 observed=3.1
compound="CC/C(=C(\\c1ccccc1)c1ccc(OCCN(C)C)cc1)c1ccccc1 [Tamoxifen] (tested concentration range 1-10000 nM)" study_system=CAF#5 observed=2
compound="COc1cc(Nc2ncc(F)c(Nc3ccc4c(n3)N(COP(=O)(O)O)C(=O)C(C)(C)O4)n2)cc(OC)c1OC [Fostamatinib] (tested concentration range 0.2-2500 nM)" study_system=CAF#5 observed=7.2
compound="COc1cccc2c1c(O)c(C(=O)N(C)c1ccc(C(F)(F)F)cc1)c(=O)n2C [Tasquinimod] (tested concentration range 1-10000 nM)" study_system=CAF#5 observed=3.4

Now let's try a different one.
Problem: Would you kindly share the measured drug sensitivity score for Cc1sc2c(c1C)C(c1ccc(Cl)cc1)=N[C@@H](CC(=O)Nc1ccc(O)cc1)c1nnc(C)n1-2 [Birabresib] (tested concentration range 1-10000 nM) ?
Solution: 3.1

Data origin, for the record: the supplement of paper PMC12592484
